Test system: A. actinomycetemcomitans virulence genes
measurementDescription: Virulence gene expression in multi-species biofilm (SYBR RT-qPCR)
Assay type: cell-based
conditionSet: substrate 1 M; relative to control = 1, 2^-ΔΔCt; n = 3
Below, each entry is listed with its recorded fold change in vppA expression, geometric mean (95% C.I.).

CC(=O)N[C@H]1C(O)O[C@H](CO)[C@@H](O)[C@@H]1O (stereo partly drawn) [NADG, N-acetyl-D-glucosamine] : 0.49 (0.41-0.59) fold
OC[C@H]1O[C@H](OC[C@H]2O[C@H](O[C@]3(CO)O[C@H](CO)[C@@H](O)[C@@H]3O)[C@H](O)[C@@H](O)[C@@H]2O)[C@H](O)[C@@H](O)[C@H]1O [D-raffinose, D-(+)-raffinose] : 0.05 (0.04-2.42)^∗ fold
OC[C@H]1O[C@@H](O[C@H]2[C@H](O)[C@@H](O)[C@@H](O)O[C@@H]2CO)[C@H](O)[C@@H](O)[C@H]1O [D-lactose, α-D-lactose] : 0.17 (0.06-0.43)^∗ fold

Could you now look at the following compound, please?
Requested read-out: fold change in vppA expression, geometric mean (95% C.I.). Entry: OC[C@H]1O[C@H](O[C@H]2O[C@H](CO)[C@@H](O)[C@H](O)[C@H]2O)[C@H](O)[C@@H](O)[C@@H]1O [D-trehalose, D-(+)-trehalose]
0.32 (0.01-4.50)^∗ fold
